Let's look at some molecules and their measured EC50.
- study_system: F508delCFTR (Homo sapiens, UniProt P13569, DEL508-508)
- Construct: expressed in transfected cells; host or cells: CFBE41o- (human lung derived epithelial cell line), doxycycline-inducible expression
- Sequence (P13569 with tags, fused parts or gaps DEL508-508): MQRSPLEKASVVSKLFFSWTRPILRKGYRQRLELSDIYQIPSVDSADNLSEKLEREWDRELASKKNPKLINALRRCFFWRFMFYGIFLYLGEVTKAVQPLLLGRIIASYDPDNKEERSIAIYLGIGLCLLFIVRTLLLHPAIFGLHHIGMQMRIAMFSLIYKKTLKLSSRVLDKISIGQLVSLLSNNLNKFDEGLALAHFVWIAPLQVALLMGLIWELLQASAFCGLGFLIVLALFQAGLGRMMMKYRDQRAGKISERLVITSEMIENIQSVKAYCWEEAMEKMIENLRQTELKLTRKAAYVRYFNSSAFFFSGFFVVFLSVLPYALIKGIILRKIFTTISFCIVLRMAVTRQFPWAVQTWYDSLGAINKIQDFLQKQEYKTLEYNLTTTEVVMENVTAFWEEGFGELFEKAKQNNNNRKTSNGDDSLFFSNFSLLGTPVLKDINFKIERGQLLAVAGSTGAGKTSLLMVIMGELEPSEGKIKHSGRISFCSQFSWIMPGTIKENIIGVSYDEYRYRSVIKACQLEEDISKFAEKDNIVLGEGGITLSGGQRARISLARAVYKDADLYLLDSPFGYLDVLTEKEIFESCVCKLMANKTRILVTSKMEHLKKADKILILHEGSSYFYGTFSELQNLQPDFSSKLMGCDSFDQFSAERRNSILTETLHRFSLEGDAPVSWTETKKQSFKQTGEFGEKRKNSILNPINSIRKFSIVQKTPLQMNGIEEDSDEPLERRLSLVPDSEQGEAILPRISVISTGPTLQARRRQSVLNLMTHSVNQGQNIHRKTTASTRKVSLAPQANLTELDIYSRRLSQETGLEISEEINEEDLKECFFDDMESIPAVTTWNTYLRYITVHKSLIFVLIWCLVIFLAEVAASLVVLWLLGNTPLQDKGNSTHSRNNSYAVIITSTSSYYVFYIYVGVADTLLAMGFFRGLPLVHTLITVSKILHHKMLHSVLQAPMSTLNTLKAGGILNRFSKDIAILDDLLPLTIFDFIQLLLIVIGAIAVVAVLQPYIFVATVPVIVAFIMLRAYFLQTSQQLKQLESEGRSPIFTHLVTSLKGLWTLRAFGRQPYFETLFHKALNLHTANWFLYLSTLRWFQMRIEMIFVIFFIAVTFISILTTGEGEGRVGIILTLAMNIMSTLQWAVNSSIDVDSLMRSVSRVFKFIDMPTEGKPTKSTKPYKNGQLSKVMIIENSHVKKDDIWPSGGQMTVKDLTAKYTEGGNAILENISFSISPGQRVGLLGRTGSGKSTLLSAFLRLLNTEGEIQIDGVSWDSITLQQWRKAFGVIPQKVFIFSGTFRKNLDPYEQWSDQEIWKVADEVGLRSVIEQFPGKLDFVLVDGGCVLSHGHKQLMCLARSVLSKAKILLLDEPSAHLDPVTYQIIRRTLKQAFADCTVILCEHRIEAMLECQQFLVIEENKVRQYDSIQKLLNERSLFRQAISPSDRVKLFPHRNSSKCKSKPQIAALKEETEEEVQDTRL
- assay_summary: Cell Surface Expression-Horse Radish Peroxidase (CSE-HRP) assay
- Format: cell-based
- details: CFBE41o-F508delCFTR-HRP cells; test compound without co-corrector; 18-24 hours at 33° C.; read-out: EC50 (without co-corrector)
- Text: Cell Surface Expression-Horse Radish Peroxidase (CSE-HRP) Assay […] The maximum % activity achieved for the test compound either without or with a co-corrector at any tested concentration is presented in Table 1 along with the respective EC50's calculated using the following general sigmoidal curve with variable Hill slope equation (described as Model 42 in the Accelrys® Assay Explorer v3.3 software): y=(a−d)/(1+(x/c)^b)+d […]

COc1cc(C(F)(F)F)ccc1CO[C@@H]1[C@@H](C(C)(C)C)[C@H](C(=O)O)N(C(=O)OC2CCC2)[C@@H]1c1ccccc1 (racemic) [Example 34]	1000 to 10000 nM
COc1ncc(C2CCC2)cc1CO[C@H]1[C@H](C(C)(C)C)[C@@H](C(=O)O)N(C(=O)C2(C(F)(F)F)CC2)[C@H]1c1cccnc1OC(C)C [Example 275]	> 10000 nM
COc1ncc(C(F)(F)F)cc1CO[C@H]1[C@H](C(C)(C)C)[C@@H](C(=O)O)N(C(=O)[C@@H]2CCCCO2)[C@H]1c1ccccc1-c1ccncc1 [Example 196]	1000 to 10000 nM
COc1ncc(-c2ccc(C)cc2)cc1CO[C@H]1[C@H](C(C)(C)C)[C@@H](C(=O)O)N(C(=O)OC(C)C)[C@H]1c1ccccc1 [Example 71]	1000 to 10000 nM

**Query** Specify EC50 for COc1ncc(C(F)(F)F)cc1CO[C@H]1[C@H](C(C)(C)C)[C@@H](C(=O)O)N(C(=O)OC(C)C)[C@H]1c1ccccc1C1=CCOCC1 [Example 108] and stop.
**Result** 1000 to 10000 nM

**Query** Tell me measured EC50 for COc1ncc(C(F)(F)F)cc1CO[C@H]1[C@H](C(C)(C)C)[C@@H](C(=O)O)N(C(=O)[C@@H]2CCCC[C@H]2C(F)(F)F)[C@H]1c1cccnc1OC(C)C (single isomer, unassigned) [Example 282] please.
**Result** < 1000 nM

**Query** Please look at this molecule and report its EC50: COc1nc2c(C)ccc(C)c2cc1CO[C@H]1[C@H](C(C)(C)C)[C@@H](C(=O)O)N(C(=O)[C@@H]2CCCCO2)[C@H]1c1ccccc1C [Example 237]
**Result** 1000 to 10000 nM

**Query** Give the measured EC50 for COc1ncc(C(F)(F)F)cc1CO[C@H]1[C@H](C(C)(C)C)[C@@H](C(=O)O)N(C(=O)[C@H]2CCCC[C@@H]2C(F)(F)F)[C@H]1c1cccnc1OC(C)C (single isomer, unassigned) [Example 283]
**Result** < 1000 nM

**Query** Name the recorded EC50 of the molecule listed here: COc1ncc(C2CCC2)cc1CO[C@H]1[C@H](C(C)(C)C)[C@@H](C(=O)O)N(C(=O)[C@H]2CCCCO2)[C@H]1c1cccnc1OC(C)C [Example 135]
**Result** 1000 to 10000 nM

**Query** Provide EC50 value for the following molecule: COc1ncc(C(F)(F)F)cc1CO[C@H]1[C@H](C(C)(C)C)[C@@H](C(=O)O)N(C(=O)[C@@H]2CCCO2)[C@H]1c1cccc(C(C)C)c1 [Example 117]
**Result** < 1000 nM

**Query** Please report the measured EC50 for COc1ncc(C(F)(F)F)cc1CO[C@H]1[C@H](C(C)(C)C)[C@@H](C(=O)O)N(C(=O)[C@@H]2CCCO2)[C@H]1c1cccc(Cl)c1 [Example 119]
**Result** 1000 to 10000 nM

**Query** Supply measured EC50 of COc1ccc(C(C)(C)C)cc1CO[C@H]1[C@H](C(C)(C)C)[C@@H](C(=O)O)N(C(=O)[C@@H]2CCCCO2)[C@H]1c1cccnc1OC(C)C [Example 285] in your reply.
**Result** < 1000 nM

**Query** Determine from records and report EC50 for COc1nc2cc(C)cc(C)c2cc1CO[C@H]1[C@H](C(C)(C)C)[C@@H](C(=O)O)N(C(=O)C2CCCCC2)[C@H]1c1cccnc1OC(C)C [Example 252]
**Result** 1000 to 10000 nM

**Query** Tell us which EC50 value is on record for COc1ccc(C(F)(F)F)cc1CO[C@H]1[C@H](C(C)(C)C)[C@@H](C(=O)O)N(C(=O)C2CCCCC2)[C@H]1c1ccccc1F [Example 49]
**Result** 1000 to 10000 nM

**Query** Provide only the value of recorded EC50 for COc1ncc(C2(C)CC2)cc1CO[C@H]1[C@H](C(C)(C)C)[C@@H](C(=O)O)N(C(=O)[C@@H]2CCCCO2)[C@H]1c1ccccc1C [Example 243]
**Result** 1000 to 10000 nM

**Query** Answer with reported EC50 of COc1cnc(C2CCC2)cc1CO[C@H]1[C@H](C(C)(C)C)[C@@H](C(=O)O)N(C(=O)OC(C)C)[C@H]1c1ccccc1 [Example 100]
**Result** 1000 to 10000 nM

**Query** Read the entry COc1nc2ccccc2cc1CO[C@H]1[C@H](C(C)(C)C)[C@@H](C(=O)O)N(C(=O)[C@@H]2CCCO2)[C@H]1c1ccccc1Br [Example 151] and write its reported EC50.
**Result** < 1000 nM

**Query** Supply reported EC50 belonging to this molecule: CC(C)Oc1ncccc1[C@H]1[C@@H](OCc2coc3ccc(C(F)(F)F)cc23)[C@H](C(C)(C)C)[C@@H](C(=O)O)N1C(=O)C1CCCCC1 [Example 279]
**Result** < 1000 nM

**Query** Could you please provide reported EC50 for COc1cc(OC)nc(OC2[C@@H](c3ccccc3)N(C(=O)N(C(C)C)C(C)C)[C@@H](C(=O)O)[C@@H]2C(C)(C)C)n1 (mixture of isomers) [Example 6] ? Thanks!
**Result** 1000 to 10000 nM
